Biological target: UP1 (UniProt P09651-2 1-196)
Sequence (P09651 1-196): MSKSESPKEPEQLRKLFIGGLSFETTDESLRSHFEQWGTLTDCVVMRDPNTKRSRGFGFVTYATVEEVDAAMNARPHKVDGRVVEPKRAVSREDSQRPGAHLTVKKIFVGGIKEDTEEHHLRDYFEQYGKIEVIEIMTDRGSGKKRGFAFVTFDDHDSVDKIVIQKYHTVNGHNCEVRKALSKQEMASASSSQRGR
Experiment: ITC; 100 mM NaCl; ITC/CD: 20 mM Tris-Cl pH 8, 100 mM NaCl or KCl, 25 C; NMR: 10 mM sodium or potassium phosphate pH 6.5, 100 mM NaCl or KCl, 298 K
Settings: protein: recombinant; tags: C-terminal 6xHis (pET28a); chain copies: 2; single strand
PROPERTY: pKd
Keep it numeric: pKd is minus log10 of the concentration in mol/L.

Query block: If you can, please state the reported pKd value of AGGATTAGGATTAGGATTAGGA (ssDNA) [Tel22ss] .
Result block: 5.92
